Test system: CAKI-1 renal
Assay: NCI-60 one-dose screen, 48 h
Details: 10 µM unless noted
About 83,000 compounds went through this panel and 20% of them were active in at least one assay; those are over-represented in the sample as a whole. Active and inactive are the calls of the source. How the source made its calls: active means growth percent below 10; inactive means the rest.
Parameter call: string, one of Y for active, N for inactive

Q: Per the records of this test, what outcome belongs to O=C(COc1cccc(/C=C2\Oc3ccc4ccccc4c3C2=O)c1)c1ccc([N+](=O)[O-])cc1 ?
Ans: N

Q: Per the records of this test, what outcome belongs to O=C(Oc1ccccc1)C(Br)C(Br)c1ccccc1 (centres undefined) ?
Ans: Y

Q: Per the records of this test, what outcome belongs to COc1ccc2nc(NC(=O)CN3CCn4c(nnc4C(F)(F)F)C3)sc2c1 ?
Ans: N

Q: Per the records of this test, what outcome belongs to COc1cc(/C=C2\CN(S(=O)(=O)c3ccc(C)cc3)C/C(=C\c3cc(CN4CCOCC4)c(O)c(OC)c3)C2=O)cc(CN2CCOCC2)c1O ?
Ans: Y

Q: Per the records of this test, what outcome belongs to C/C(=C\CCc1ccoc1)CC/C=C(\C)CCCNc1ccc(F)cc1 ?
Ans: N

Q: Per the records of this test, what outcome belongs to Cc1ccc(-c2csc(N)n2)cc1 ?
Ans: N

Q: Per the records of this test, what outcome belongs to COC(=O)c1c(NC(=O)CSc2nnnn2-c2ccc(OC)cc2)sc(C)c1C ?
Ans: N

###

System: MOLT-4 leukemia
Assay: NCI-60 one-dose screen, 48 h
Conditions: 10 µM unless noted
The panel holds about 83,000 compounds, 20% with a hit somewhere; the sample as a whole holds those more often. The source made the active and inactive calls. The calls were made as follows: active = growth percent below 10; inactive = the rest.
Parameter call: string, one of active, inactive

Example results:
MOLECULE	QUALITATIVE_LABEL
COc1ccc2c3c(ccc2c1)C(=O)/C(=C\O)CC3	inactive
COc1ccc2c(c1)[n+](=O)c(/C=C/C(=O)c1cc(OC)c(OC)c(OC)c1)c(C)n2[O-]	active
CCOC(=O)CCC(=O)O[C@H]1[C@H](O[C@@H]2[C@@H](C)[C@H](O[C@H]3C[C@@](C)(OC)[C@@H](O)[C@H](C)O3)[C@@H](C)C(=O)O[C@H](CC)[C@@](C)(O)[C@H](O)[C@@H](C)C(=O)[C@H](C)C[C@@]2(C)O)O[C@H](C)C[C@@H]1N(C)C	inactive
CCCCCCCCCCNCCSS(=O)(=O)O	active
c1ccc2nc(N/N=C3\CCCCC3C3CCCCC3)ccc2c1 (stereo not drawn)	active
COc1cc(C2CC(C3C(=O)N(C)C(=O)N(C)C3=O)=NN2C=O)cc(OC)c1OC (stereo not drawn)	inactive
CCCc1n(Cc2ccc3ccccc3c2)cc[n+]1Cc1ccc2ccccc2c1	active

Q: Per the records of this test, what outcome belongs to CC(=O)N1N=C(c2ccc(Cl)cc2)CC1c1c(C)nn(-c2ccccc2)c1N(C)Cc1ccccc1 (stereo not drawn) ?
Ans: inactive

###

Test system: COLO 205 colon
Test: NCI-60 one-dose screen, 48 h
Details: 10 µM unless noted
Compounds without any hit were thinned out: in the full panel of roughly 83,000, 20% have a hit. Calls of active or inactive are those of the source. How the source made its calls: active means growth percent below 10; inactive means the rest.
Parameter call: string, one of active, inactive

COMPOUND	QUALITATIVE_LABEL
COc1c(O)cc2c(c1CC=C(C)C)OC(=O)c1c(cc(O)c(CC=C(C)C)c1O)O2	inactive
CCCCCN1C(=O)CCC1=O	inactive
O=C(COc1ccc(/C=C2\Oc3ccc4ccccc4c3C2=O)cc1)c1ccc(Cl)cc1	inactive
O=C(c1ccc(N2CCOCC2)cc1[N+](=O)[O-])N1CCOCC1	inactive
C[C@]12CCC(=O)C=C1CCC1C2[C@@H](O)C[C@@]2(C)C1CC[C@]2(O)C(=O)COC(=O)CCC(=O)O (stereo not given in full)	inactive

Q: Per the records of this test, what outcome belongs to CCOC(=O)C1=CCC(n2cc(C)c(=O)[nH]c2=O)O1 (stereo not given) ?
Ans: inactive

Q: Per the records of this test, what outcome belongs to Cc1ccc(N/N=C(/C(=O)c2ccc(Cl)cc2)c2nc(C)cc(=O)[nH]2)cc1 ?
Ans: inactive

Q: Per the records of this test, what outcome belongs to CCN(CC)CCNCC(=O)Oc1ccc(/C=C/C(=O)CC(=O)/C=C/c2ccc(OC(=O)CNCCN(CC)CC)c(OC)c2)cc1OC ?
Ans: inactive

Q: Per the records of this test, what outcome belongs to COc1cc(-c2n[nH]nc2-c2ccccn2)cc(OC)c1OC ?
Ans: inactive

Q: Per the records of this test, what outcome belongs to CCn1cnc(C[C@H](NC(=O)[C@H](CCCCNC(=O)Nc2cc(C(F)(F)F)cc(C(F)(F)F)c2)NC(=O)Nc2cc(C(F)(F)F)cc(C(F)(F)F)c2)C(=O)OC)c1 ?
Ans: active

Q: Per the records of this test, what outcome belongs to COc1cc(/C=C/C(=O)CC(=O)/C=C/c2ccc(OC(=O)CCNC34CC5CC(CC(C5)C3)C4)c(OC)c2)ccc1OC(=O)CCNC12CC3CC(CC(C3)C1)C2 ?
Ans: inactive

Q: Per the records of this test, what outcome belongs to C[C@@H]1CN(c2nc3c(cc2F)c(=O)c(C(=O)O)cn3C(C)(C)C)C[C@H](C)N1 ?
Ans: inactive

Q: Per the records of this test, what outcome belongs to O=CNc1ccc2c(c1)Cc1cc([N+](=O)[O-])ccc1-2 ?
Ans: active

Q: Per the records of this test, what outcome belongs to CCOC(=O)CNC(=O)C1(NC(=O)CNC(=O)OCc2ccccc2)CCCC1 ?
Ans: inactive

The origin of these recorded values is PubChem BioAssay (NCI).
